Answer each item with its documented cytotoxicity at 10 µM.
- test.summary: Toxicity liver stage against HepG2, at 10uM
- Assay type: cell-based
- Parameters: test concentration 10 uM, cell line HepG2-A16-CD81EGFP
- conditions: human, HepG2-A16-CD81EGFP cells; read-out: INHIBITION
Note: unit % is implicit; provide only the numeric part.

# input Consider the compound shown here: Cc1nc(C)n(CC2CN(CC(=O)Nc3cccnc3)CCO2)n1 (stereo unspecified) What is its recorded cytotoxicity at 10 µM?
# output -12

# input // lookup cytotoxicity at 10 µM for CN(C)CCCNC(=O)c1nnsc1-c1ccccc1
# output 5.75

# input What value of measured cytotoxicity at 10 µM is listed for CCOc1ccnc(N2CCN(C(=O)c3cccc(C#N)c3)CC2)n1 ?
# output -3.34

# input What cytotoxicity at 10 µM value was documented for this compound, O=S(=O)(NCC(O)c1ccoc1)c1ccc(Cl)s1 (stereo unspecified) ?
# output -9.34

# input Suppose we examine the compound COCCN(C)C(C(=O)O)c1ccc(F)c(C)c1 (stereo unspecified) ; what cytotoxicity at 10 µM value has been reported?
# output 1.87

# input Which cytotoxicity at 10 µM is listed for COCCC(=O)N1CCCC(CCc2ccc(F)c(F)c2)C1 (stereo unspecified) ?
# output -2.59

---

- test.summary: Toxicity liver stage against HepG2, at 10uM
- Type: cell-based
- Design: test concentration 10 uM, cell line HepG2-A16-CD81EGFP
- conditions: human, HepG2-A16-CD81EGFP cells; read-out: INHIBITION
experimental.endpoint: cytotoxicity at 10 µM (%)
A number alone suffices; assume %.

# input Entry CNc1nc2cn(CCc3ccc(F)cc3)c(=O)c-2c[nH]1 : reported cytotoxicity at 10 µM = ?
# output 7.55

# input Which value of cytotoxicity at 10 µM has been reported for CN(C)CCN(C)C[C@@H]1CN(Cc2cccc(O)c2)C[C@@H]1CO in the records?
# output 0.972

# input Need cytotoxicity at 10 µM, item COC(=O)c1cccn1C1CCN(C(=O)c2cc(F)ccc2F)CC1
# output -9.62

# input Bench note: what cytotoxicity at 10 µM did Cc1cc(C)n(CC2CCCN2C(=O)c2cnn(C)c2C2CC2)n1 (configuration not stated) show?
# output -0.489

# input Give its cytotoxicity at 10 µM value. Item: COCCC1COC2(CCN(C(=O)c3ccsc3)CC2)C1 (configuration not stated)
# output -71.2

# input Please report the recorded cytotoxicity at 10 µM for Cn1c(C(=O)NC2CC2)nc2c1CCN(c1ncccn1)C2 .
# output -4.75

# input # query: cytotoxicity at 10 µM of entry CS(=O)(=O)c1nccn1CCOc1ccc(F)cc1Cl
# output 13.1

# input Quick check: cytotoxicity at 10 µM of CC(C)c1cc(N(C)Cc2cc(C3CC3)on2)n2nccc2n1 ?
# output 4.28

# input Bench note: what cytotoxicity at 10 µM did CC(C)OCCOCc1cccc(NC(=O)NCCn2ccnc2)c1 show?
# output -4.63

# input Reported cytotoxicity at 10 µM for CCn1cnnc1C1CCN(C(=O)c2ccc3ccccc3n2)CC1 : what is it?
# output 6.13

# input Return reported cytotoxicity at 10 µM; argument: CC(=O)NCc1ccc(C(=O)N2CCCC2c2c(C)nn(C)c2C)o1 (configuration not stated)
# output -11.3

# input Consider the molecule shown here: COc1ccc(C)cc1CNCc1ccc(-n2nc(C)cc2C)nc1 What is its recorded cytotoxicity at 10 µM?
# output 0.813
